Entries and their inhibition
Test system: aldehyde dehydrogenase (Saccharomyces cerevisiae)
Assay: In vitro inhibition of yeast aldehyde dehydrogenase
Design: concentration or dose not given beside the values
Details: concentration not given here
Kindly answer with a numeric value in %, unit omitted.

Example entries and their recorded answers appear below.
{"columns": ["Smiles Structure", "inhibition [%]"],
 "data": [
  ["CCCCN(C(=O)NCCC)S(=O)(=O)c1ccc(Cl)cc1", 100],
  ["CCN(C(=O)NC(C)(C)C)S(=O)(=O)c1ccc(Cl)cc1", 97.3],
  ["CCCNC(=O)N(CC(C)C)S(=O)(=O)c1ccc(Cl)cc1", 100]
]}

## Input Return inhibition (reported value) for this compound: "CCCNC(=O)N(C(C)(C)C)S(=O)(=O)c1ccc(Cl)cc1"
## Output 100

## Input Given the compound "CCCOC(=O)N(CC)S(=O)(=O)c1ccc(Cl)cc1" , write its reported inhibition.
## Output 1.4

## Input Please indicate inhibition recorded for "CCCNC(=O)N(C)S(=O)(=O)c1ccc(Cl)cc1"
## Output 99.6

## Input Fill in reported inhibition for this entry: "CCCN(C)C(=O)NS(=O)(=O)c1ccc(Cl)cc1"
## Output 0

## Input Could you please provide reported inhibition for "CCCNC(=O)N(CCC)S(=O)(=O)c1ccc(Cl)cc1" ? Thanks!
## Output 91.1

----------
Each record here notes measured ALDH activity (NADH formation rate).
System: aldehyde dehydrogenase (Saccharomyces cerevisiae)
Test: In vitro inhibition of yeast aldehyde dehydrogenase is evaluated by the formation of NADH
Note: unit nM/min is implicit; provide only the numeric part.

Consider the worked cases shown below.
{"columns": ["Smiles Structure", "Assay System", "ALDH activity (NADH formation rate) [nM/min]"],
 "data": [
  ["CCCNC(=O)N(C(C)(C)C)S(=O)(=O)c1ccc(Cl)cc1", "aldehyde dehydrogenase (Saccharomyces cerevisiae)", 0],
  ["CCCNC(=O)N(CC(C)(C)C)S(=O)(=O)c1ccc(Cl)cc1", "aldehyde dehydrogenase (Saccharomyces cerevisiae)", 0],
  ["CCCNC(=O)N(CCC)S(=O)(=O)c1ccc(Cl)cc1", "aldehyde dehydrogenase (Saccharomyces cerevisiae)", 1.3],
  ["CCCN(C)C(=O)NS(=O)(=O)c1ccc(Cl)cc1", "aldehyde dehydrogenase (Saccharomyces cerevisiae)", 15],
  ["CCCNC(=O)N(CC(C)C)S(=O)(=O)c1ccc(Cl)cc1", "aldehyde dehydrogenase (Saccharomyces cerevisiae)", 0],
  ["CCCNC(=O)N(C)S(=O)(=O)c1ccc(Cl)cc1", "aldehyde dehydrogenase (Saccharomyces cerevisiae)", 0.6]
]}

With those in mind, consider the next compound.
## Input Dear colleague, please send me the reported ALDH activity (NADH formation rate) for "CCCCN(C(=O)NCCC)S(=O)(=O)c1ccc(Cl)cc1" when you can.
## Output 0

----------
The entries below come with measured inhibition values attached.
System: aldehyde dehydrogenase (Saccharomyces cerevisiae)
Experiment: In vitro inhibition of yeast aldehyde dehydrogenase
Parameters: concentration or dose not given beside the values
Settings: concentration not given here
Give your result in % as a bare value.

Look over these answered cases.
{"columns": ["Smiles Structure", "Measured Endpoint", "Val"],
 "data": [
  ["CCCNC(=O)N(C(C)C)S(=O)(=O)c1ccc(Cl)cc1", "inhibition", 100],
  ["CCCNC(=O)N(CC(C)(C)C)S(=O)(=O)c1ccc(Cl)cc1", "inhibition", 100]
]}

Then this compound:
## Input Tell me its inhibition given "CCCNC(=O)N(CC)S(=O)(=O)c1ccc(Cl)cc1" as the entry.
## Output 98.6

----------
System: aldehyde dehydrogenase (Saccharomyces cerevisiae)
Experiment: In vitro inhibition of yeast aldehyde dehydrogenase is evaluated by the formation of NADH
Here the recorded ALDH activity (NADH formation rate) is given for each entry.
Please respond with the number in nM/min and leave the unit unwritten.

{"columns": ["Smiles Structure", "Unit Abbreviation", "Val"],
 "data": [
  ["CCN(C(=O)NC(C)(C)C)S(=O)(=O)c1ccc(Cl)cc1", "nM/min", 2.7],
  ["CCCOC(=O)N(CC)S(=O)(=O)c1ccc(Cl)cc1", "nM/min", 14.6],
  ["CCCNC(=O)N(CC)S(=O)(=O)c1ccc(Cl)cc1", "nM/min", 1.4]
]}

Pending molecule:
## Input Let me know recorded ALDH activity (NADH formation rate) for "CCCNC(=O)N(C(C)C)S(=O)(=O)c1ccc(Cl)cc1" , thanks.
## Output 0
